Every entry's value here was drawn from PubChem BioAssay AID2060899.

# maps each entry to its viability, T/C
System: 565726-208-R1-J5-PDC complex spheroids, growth inhibition;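 note: spheroids exposed to compounds for seven days before readout; 100% = DMSO vehicle control viability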
Experiment: Anticancer human tumor 565726-208-R1-J5-PDC patient-derived pancreatic adenocarcinoma cell line growth inhibition [RAS]
Details: second compound 0.000949 µM; first compound 0.00949 µM; hits give low values
Give the value in % but do not write % after it.

The following compounds have reported results that may help.
{"compound": "CC1(C)CCC(Nc2ncc(C(F)(F)F)c(-c3c[nH]c4c(P(C)(C)=O)c(C#N)ccc34)n2)CN1 (centres undefined) + CCn1c(-c2cc(N3CCN(C)CC3)cnc2C(C)OC)c2c3cc(ccc31)-c1csc(n1)CC(NC(=O)C1CC1C)C(=O)N1CCCC(N1)C(=O)OCC(C)(C)C2", "testResult": 30.8}
{"compound": "CCc1c2c(nc3ccc(O)cc13)-c1cc3c(c(=O)n1C2)COC(=O)[C@]3(O)CC + CCn1c(-c2cc(N3CCN(C)CC3)cnc2C(C)OC)c2c3cc(ccc31)-c1csc(n1)CC(NC(=O)C1CC1C)C(=O)N1CCCC(N1)C(=O)OCC(C)(C)C2", "testResult": 21.2}
{"compound": "CCc1c2c(nc3ccc(O)cc13)-c1cc3c(c(=O)n1C2)COC(=O)[C@]3(O)CC + CCn1c(-c2cccnc2C(C)OC)c2c3cc(ccc31)N1CCOC(CC(NC(=O)C(C(C)C)N(C)C(=O)C3(F)CCN(C(=O)C#CC(C)(C)N(C)C)CC3)C(=O)N3CCCC(N3)C(=O)OCC(C)(C)C2)C1", "testResult": 25.5}

Query viability, T/C on 565726-208-R1-J5-PDC complex spheroids, growth inhibition for CC1(C)CCC(Nc2ncc(C(F)(F)F)c(-c3c[nH]c4c(P(C)(C)=O)c(C#N)ccc34)n2)CN1 (centres undefined) + CCn1c(-c2cccnc2C(C)OC)c2c3cc(ccc31)N1CCOC(CC(NC(=O)C(C(C)C)N(C)C(=O)C3(F)CCN(C(=O)C#CC(C)(C)N(C)C)CC3)C(=O)N3CCCC(N3)C(=O)OCC(C)(C)C2)C1
37.6
